- subject_of_test: IRAK4 (Homo sapiens (Human), UniProt Q9NWZ3)
- Sequence (Q9NWZ3 whole entry, species assumed): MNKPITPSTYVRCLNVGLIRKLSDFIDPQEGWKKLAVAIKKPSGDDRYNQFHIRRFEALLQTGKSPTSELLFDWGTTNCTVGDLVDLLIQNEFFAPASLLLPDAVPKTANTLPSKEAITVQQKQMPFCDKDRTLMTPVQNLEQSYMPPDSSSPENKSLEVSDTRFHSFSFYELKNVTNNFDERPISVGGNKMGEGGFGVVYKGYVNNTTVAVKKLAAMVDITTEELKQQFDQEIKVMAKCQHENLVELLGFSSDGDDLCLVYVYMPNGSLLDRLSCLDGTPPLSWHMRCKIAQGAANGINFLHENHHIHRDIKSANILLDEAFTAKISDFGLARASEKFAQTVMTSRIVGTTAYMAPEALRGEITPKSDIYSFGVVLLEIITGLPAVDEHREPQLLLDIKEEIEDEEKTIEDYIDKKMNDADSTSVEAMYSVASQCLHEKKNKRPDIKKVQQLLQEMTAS
- test_details: IRAK4 Biochemical HTRF Kinase Assay
- assay_context: Table 4; read-out: IRAK4 HTRF biochemical: IC50
pIC50: −log10 of the molar value.
readout_name: pIC50

compound	pIC50
CC(C)Nc1cc(-c2ccc3cc(C#N)cnn23)ncc1-c1nnc(N2CCN(C[C@H]3CCN(c4ccc5c(c4)C(=O)N(C4CCC(=O)NC4=O)C5=O)C3)CC2)s1 (some centres unmarked) [Example 19]	8.66
CNc1cc(-c2ccc3cc(C#N)cnn23)ncc1-c1nnc([C@H]2CC[C@H](NC(=O)CCC(=O)N[C@H](C(=O)N3C[C@H](O)C[C@H]3C(=O)N[C@@H](C)c3ccc(-c4scnc4C)cc3)C(C)(C)C)CC2)s1 [Example 56]	8.55

P. Cc1ncsc1-c1ccc(CNC(=O)[C@@H]2C[C@@H](O)CN2C(=O)[C@@H](NC(=O)CCCC(=O)N2CCN(c3nnc(-c4cnc(-c5ccc6cc(C#N)cnn56)cc4NC(C)C)s3)CC2)C(C)(C)C)cc1 [Example 35]
Q. Cc1ncsc1-c1ccc(CNC(=O)[C@@H]2C[C@@H](O)CN2C(=O)[C@@H](NC(=O)C2(F)CC2)C(C)(C)C)c(OCCCCCCCC(=O)N2CCN(c3nnc(-c4cnc(-c5ccc6cc(C#N)cnn56)cc4NC(C)C)s3)CC2)c1 [Example 43]
Query: # argmax over pIC50 for candidates P and Q Field: selected label. Fill in the label of the entry you choose.
Reply: P
(P: 8.28, Q: 7.62)
